Attribution: patent US9510598B2

Measured % of efficacy (protection), listed per entry for reference.
Test system: Uromyces appendiculatus
Assay: In vivo preventive test on Uromyces appendiculatus (bean rust)
Details: 500 ppm; bean plants sprayed 24 hours before contamination; grading 10 days after contamination vs control plants
Kindly answer with a numeric value in %, unit omitted.

INSERT INTO assay_data (compound, property_name, unit_string, measured) VALUES
  ('C#CC1(NC(=O)C2(C)CC(c3ccc4ncc(Br)cc4c3)=NO2)CCCCC1 (stereo not drawn) [compound 237]', '% of efficacy (protection)', '%', 80),
  ('CCn1cc(CNC(=O)C2(C)CC(c3ccc4ncc(-c5cncnc5)cc4c3)=NO2)c(C)n1 (stereo not drawn) [compound 265]', '% of efficacy (protection)', '%', 96);

Continue with the next compound.
Fill in the blank: the reported % of efficacy (protection) of C#Cc1cnc2ccc(C3=NOC(CC)(C(=O)NC4CCC4)C3)cc2c1 (racemic) [compound 447] is ____. 100

----------
Measured % of efficacy (protection), listed per entry for reference.
Test system: Septoria tritici
Assay: In vivo preventive test on Septoria tritici (leaf spot on wheat)
Settings: 500 ppm; wheat plants sprayed 24 hours before contamination; grading 21 to 28 days after contamination vs control plants
Kindly answer with a numeric value in %, unit omitted.

INSERT INTO assay_data (molecule, study_system, property_name, unit_string, measured) VALUES
  ('C#Cc1cnc2ccc(C3=NOC(C)(C(=O)NCC4CCOC4)C3)cc2c1 (stereo not shown)', 'Septoria tritici', '% of efficacy (protection)', '%', 100),
  ('Cc1nc(CNC(=O)C2(C)CC(c3ccc4ncc(Br)cc4c3)=NO2)no1 (stereo not shown)', 'Septoria tritici', '% of efficacy (protection)', '%', 71),
  ('C#Cc1cnc2ccc(C3=NOC(C)(C(=O)NC(C)c4ccccn4)C3)cc2c1 (stereo not shown)', 'Septoria tritici', '% of efficacy (protection)', '%', 100),
  ('CCn1cc(CNC(=O)C2(OC)CC(c3cc(Cl)c4ncc(Br)cc4c3)=NO2)c(C)n1 (stereo not shown)', 'Septoria tritici', '% of efficacy (protection)', '%', 100),
  ('CCn1cc(CNC(=O)C2(C(F)(F)F)CC(c3cc4cc(Br)cnc4c(F)c3F)=NO2)c(C)n1 (stereo not shown)', 'Septoria tritici', '% of efficacy (protection)', '%', 71);

Continue with the next molecule.
Could you share what % of efficacy (protection) was measured for C#Cc1cnc2ccc(C3=NOC(C)(C(=O)NC(C)c4nccs4)C3)cc2c1 (stereo not shown) , tested on Septoria tritici? 100

----------
Measured log P, listed per entry for reference.
Assay type: physicochemical
Conditions: method [a]: HPLC/LC-MS on reversed phase at pH 2.7, 0.1% formic acid in water / acetonitrile, linear gradient 10% to 95% acetonitrile

Recorded results for 5 molecules are shown here.
INSERT INTO assay_data (molecule, measured) VALUES
  ('C#Cc1cnc2ccc(C3=NOC(C)(C(=O)NCC4CCCO4)C3)cc2c1 (stereo not shown)', '2.17^[a]'),
  ('CC1(C(=O)NCc2cc(Cl)cc(Cl)c2)CC(c2ccc3ncc(Br)cc3c2)=NO1 (stereo not shown)', '4.16^[a]'),
  ('CC(C)NC(=O)C1(Cc2ccccc2)CC(c2ccc3ncc(Br)cc3c2)=NO1 (stereo not shown)', '3.87^[a]'),
  ('C#Cc1cnc2ccc(C3=NOC(C)(C(=O)NC4(C#C)CCCCC4)C3)cc2c1 (stereo not shown)', '3.48^[a]'),
  ('CC(C)NC(=O)C1(C)CC(c2ccc3ncc(S(C)(=O)=O)cc3c2)=NO1 (stereo not shown)', '1.81^[a]');

Fill in the blank: the reported log P of C#Cc1cnc2ccc(C3=NOC(C)(C(=O)NCc4ccc5c(c4)OCCO5)C3)cc2c1 (stereo not shown) is ____. 2.71^[a]

Fill in the blank: the reported log P of C#Cc1cnc2ccc(C3=NOC(C)(C(=O)NCc4cccc(Cl)c4Cl)C3)cc2c1 (stereo not shown) is ____. 3.58^[a]

Fill in the blank: the reported log P of C#Cc1cnc2ccc(C3=NOC(C)(C(=O)NCc4cnn(CC)c4)C3)cc2c1 (stereo not shown) is ____. 2.04^[a]

Fill in the blank: the reported log P of C#Cc1cnc2ccc(C3=NOC(C)(C(=O)NCc4cnn(C(C)C)c4)C3)cc2c1 (stereo not shown) is ____. 2.23^[a]

Fill in the blank: the reported log P of C#Cc1cnc2ccc(C3=NOC(C)(C(=O)NCCc4ccc(Cl)cc4Cl)C3)cc2c1 (stereo not shown) is ____. 3.7^[a]
